test system: SNB-19 CNS; assay: NCI tumour cell line growth inhibition, 48 h
Where a SMILES comes first, the peptide text is derived from it. The star is where a group is joined. Boc = CC(C)(C)OC(=O)*; OBn = c1ccc(CO*)cc1

Molecule	TGI
COc1cc2c(cc1O)CC13CCC(=O)N1CCc1cc(OC)c(O)c-2c13 (stereo not given)	> 68.1 µM
CN1CC(C(=O)C2C(=O)c3ccccc3C2=O)C(=O)C(=O)C(C(=O)C2C(=O)c3ccccc3C2=O)C1 (stereo not given)	> 100 µM
CC(NC(=O)C(NC(=O)OC(C)(C)C)C(C)C)C(=O)N1CCCC1C(=O)NCC(=O)NC(C(=O)NCC(=O)OCc1ccccc1)C(C)C (stereo not given) (Boc-VAPGVG-OBn; configuration not given here)	> 100 µM
COc1ccc(Cl)cc1NC(=O)C(Br)C(Br)C(=O)O (stereo not given)	> 68.7 µM
CC(=O)OC1(C)C(=O)OC1(C)C(C)=O (stereo not given)	> 100 µM

The measurements presented in this section are drawn from PubChem BioAssay (NCI).
